# assayed system: human Orexin type 2 receptors (Homo sapiens (Human), UniProt O43614)
# Sequence (O43614 whole entry): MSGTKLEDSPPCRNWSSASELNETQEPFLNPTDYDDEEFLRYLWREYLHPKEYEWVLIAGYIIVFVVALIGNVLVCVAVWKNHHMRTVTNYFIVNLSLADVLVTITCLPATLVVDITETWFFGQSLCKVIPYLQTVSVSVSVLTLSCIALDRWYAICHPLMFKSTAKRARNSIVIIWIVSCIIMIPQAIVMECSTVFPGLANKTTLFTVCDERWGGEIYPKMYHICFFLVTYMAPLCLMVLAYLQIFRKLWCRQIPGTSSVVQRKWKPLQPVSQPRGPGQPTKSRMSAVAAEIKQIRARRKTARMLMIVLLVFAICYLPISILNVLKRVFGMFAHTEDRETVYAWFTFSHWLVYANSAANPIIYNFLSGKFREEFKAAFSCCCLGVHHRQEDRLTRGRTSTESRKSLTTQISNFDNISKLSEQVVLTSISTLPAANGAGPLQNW
# experiment: Scintillation Proximity Assay (SPA) binding assay, [3H]EMPA displacement, HEK-hOX2 membranes
# experimental setup: Table 1, [3H]EMPA 2 nM
quantity kind: OX2 pKi (SPA binding)

INSERT INTO measurements (compound, quantity_kind, value) VALUES
  ('Cc1ccc(-n2nccn2)c(C(=O)N2C3CC(C3)[C@H](C)C2COc2ccc(F)c(F)c2)n1 (mixture of isomers) [Example 111]', 'OX2 pKi (SPA binding)', 5.99),
  ('Cc1nc(C(=O)N2C(COc3ccc(C(F)(F)F)cn3)CC3CC2C3)c(-c2ccccc2)s1 (stereo not shown) [Example 55]', 'OX2 pKi (SPA binding)', 6.49),
  ('Cc1nc(C(=O)N2C(COc3nc4ccc(F)cc4s3)CC3CC2C3)c(-c2ccccc2)s1 (stereo not shown) [Example 54]', 'OX2 pKi (SPA binding)', 7.03),
  ('Cc1nc(C(=O)N2C(CNc3cc4ccccc4cn3)CC3CC2C3)c(-c2ccccc2)s1 (stereo not shown) [Example 59]', 'OX2 pKi (SPA binding)', 7.46);

----------
# assayed system: human Orexin type 2 receptors (Homo sapiens (Human))
# experiment: Scintillation Proximity Assay (SPA) binding assay, [3H]EMPA displacement, HEK-hOX2 membranes
# experimental setup: Table 2, [3H]EMPA 2 nM
# Method: Scintillation Proximity Assay (SPA) Binding Assays […] The binding was performed in a final volume of 200 μl. […] Nonspecific binding was measured in the presence of 1 μM Almorexant. Assay plates were then incubated at room temperature for 3 h before being counted in a Microbeta scintillation counter (PerkinElmer). Data were analysed by non-linear regression analysis using XLfit Software.
OX2 pKi (SPA binding): recorded values
quantity kind: OX2 pKi (SPA binding)

INSERT INTO assay_data (compound, value) VALUES
  ('Cc1ccc(-n2nccn2)c(C(=O)N2C3CC(C3)[C@@H](C)C2CNc2ccc(F)c(C)n2)n1 (mixture of isomers)', 5.74),
  ('Cc1ccc(-c2ncc(C(F)(F)F)cn2)c(C(=O)N2C3CC(C3)[C@@H](C)C2COc2ccc(F)cc2)n1 (mixture of isomers)', 6.79),
  ('C[C@@H]1C2CC(C2)N(C(=O)c2cc(C#N)ccc2-n2nccn2)C1CNc1nc2cccnc2s1 (stereo partly drawn) [Example 231]', 5.21);

----------
Parameter: OX2 pKi (SPA binding). Scope: all listed entries.
# assayed system: human Orexin type 2 receptors (Homo sapiens (Human))
# experiment: Scintillation Proximity Assay (SPA) binding assay, [3H]EMPA displacement, HEK-hOX2 membranes
# experimental setup: Table 2, [3H]EMPA 2 nM
quantity kind: OX2 pKi (SPA binding)

INSERT INTO assay_data (compound, assayed_system, quantity_kind, value) VALUES
  ('C[C@@H]1C2CC(C2)N(C(=O)c2cc(Cl)ccc2-n2nccn2)C1CNc1ncc(C2CC2)cn1 (stereo partly shown)', 'human Orexin type 2 receptors (Homo sapiens (Human))', 'OX2 pKi (SPA binding)', 5.32),
  ('C[C@@H]1C2CC(C2)N(C(=O)c2cc(Cl)ccc2-n2nccn2)C1CNc1nc2ccc(F)cc2s1 (single isomer, unassigned) [Example 173]', 'human Orexin type 2 receptors (Homo sapiens (Human))', 'OX2 pKi (SPA binding)', 6.53),
  ('Cc1ccc(-c2sc(C)nc2C(=O)N2C3CC(C3)[C@@H](C)C2COc2ccc(F)cc2)cn1 (stereo partly shown)', 'human Orexin type 2 receptors (Homo sapiens (Human))', 'OX2 pKi (SPA binding)', 5.93),
  ('Cc1ccc(-n2nccn2)c(C(=O)N2C3CC(C3)[C@@H](C)C2CNc2nc3ccccc3o2)n1 (single isomer, unassigned) [Example 226]', 'human Orexin type 2 receptors (Homo sapiens (Human))', 'OX2 pKi (SPA binding)', 5.39),
  ('Cc1cnc(NCC2[C@H](C)C3CC(C3)N2C(=O)c2nc(C)ccc2-n2nccn2)cn1 (mixture of isomers)', 'human Orexin type 2 receptors (Homo sapiens (Human))', 'OX2 pKi (SPA binding)', 4.62),
  ('Cc1nc(C(=O)N2C3CC(C3)[C@H](C)C2COc2ccc(F)cn2)c(-c2ncccn2)s1 (mixture of isomers)', 'human Orexin type 2 receptors (Homo sapiens (Human))', 'OX2 pKi (SPA binding)', 5.26),
  ('Cc1ccc(-n2nccn2)c(C(=O)N2C3CC(C3)[C@@H](C)C2CNc2cnc3cc(F)c(F)cc3n2)n1 (mixture of isomers)', 'human Orexin type 2 receptors (Homo sapiens (Human))', 'OX2 pKi (SPA binding)', 6.55),
  ('C[C@@H]1C2CC(C2)N(C(=O)c2cc(F)ccc2-n2nccn2)C1CNc1ncc(C2CC2)cn1 (stereo partly shown)', 'human Orexin type 2 receptors (Homo sapiens (Human))', 'OX2 pKi (SPA binding)', 4.89),
  ('Cc1ccc(-c2nccs2)c(C(=O)N2C3CC(C3)[C@@H](C)C2CNc2ccc(F)cc2)c1 (stereo partly shown)', 'human Orexin type 2 receptors (Homo sapiens (Human))', 'OX2 pKi (SPA binding)', 6.02),
  ('Cc1ccc(-n2nccn2)c(C(=O)N2C3CC(C3)[C@H](C)C2COc2ccc(Cl)cc2)n1 (single isomer, unassigned) [Example 120]', 'human Orexin type 2 receptors (Homo sapiens (Human))', 'OX2 pKi (SPA binding)', 5.98),
  ('Cc1ccc(-n2nccn2)c(C(=O)N2C3CC(C3)[C@@H](C)C2CNc2nc3ccccc3s2)n1 (single isomer, unassigned) [Example 180]', 'human Orexin type 2 receptors (Homo sapiens (Human))', 'OX2 pKi (SPA binding)', 5.58),
  ('Cc1ccc(-n2nccn2)c(C(=O)N2C3CC(C3)[C@@H](C)C2CNc2cc3ccccc3cn2)n1 (stereo partly shown)', 'human Orexin type 2 receptors (Homo sapiens (Human))', 'OX2 pKi (SPA binding)', 5.42),
  ('Cc1ccc(-n2nccn2)c(C(=O)N2C3CC(C3)[C@@H](C)C2CNc2nc3ccccc3o2)n1 (single isomer, unassigned) [Example 227]', 'human Orexin type 2 receptors (Homo sapiens (Human))', 'OX2 pKi (SPA binding)', 4.9);

Data provenance: patent US11660293B2
